Test: Intrinsic clearance in rat liver microsomes
Type: ADME
Settings: read-out: CLH (converted)
value-kind: CLint scaled (mL/min/kg)
Entry rule: numbers only, all in mL/min/kg.

// worked examples, CLint scaled included
>>> print(df.to_string())
                                   molecule  unit_of_measure  data_value
0  CN(C(=O)c1cc(-c2ccccn2)[nH]n1)c1ccc(OCB2C=Cc3ccccc3N2)cc1        mL/min/kg          25
1  CN(C(=O)c1ccncc1)c1ccc(OCB2C=Cc3ccccc3N2)cc1        mL/min/kg         115
2  CN(C(=O)c1ccc2ncsc2c1)c1ccc(OCc2ccc3ccccc3c2)cc1        mL/min/kg        48.3
3  Cn1cc(-c2ccncc2)c(-c2ccc(OCc3ccc4ccccc4c3)cc2)n1        mL/min/kg        83.3
4  Cn1cc(-c2ccncc2)c(-c2ccc(OCc3ccc4ccccc4n3)cc2)n1 [MARDEPODECT]        mL/min/kg        31.7

IN: Specify reported CLint scaled for the molecule shown: CN(C(=O)c1cc(-c2ccccn2)[nH]n1)c1ccc(OCc2ccc3ccccc3c2)cc1
OUT: 30

IN: Specify reported CLint scaled for the molecule shown: CN(C(=O)c1cc(-c2ccccc2)n[nH]1)c1ccc(OCc2ccc3ccccc3n2)cc1
OUT: 21.7

###

Assay: Intrinsic clearance in rat liver microsomes
Type: ADME
Conditions: read-out: CLH (converted)
Lab note: cut-off is 40 mL/min/kg. Strictly less in CLint scaled is yes. Exactly 40 mL/min/kg or more is no.

                               smiles_input  group
0  CN(C(=O)c1ccc2ncsc2c1)c1ccc(OCc2ccc3ccccc3n2)cc1    yes
1  Cn1cc(-c2ccncc2)c(-c2ccc(OCB3C=Cc4ccccc4N3)cc2)n1     no

IN: Consider the molecule CN(C(=O)c1cc(-c2ccccc2)n[nH]1)c1ccc(OCc2ccc3ccccc3c2)cc1 . Is its CLint scaled strictly less than 40 mL/min/kg?
OUT: yes

IN: Consider the molecule CN(C(=O)c1csc(-c2cccnc2)n1)c1ccc(OCc2ccc3ccccc3n2)cc1 . Is its CLint scaled strictly less than 40 mL/min/kg?
OUT: no

IN: Consider the molecule CN(C(=O)c1cc(-c2ccccn2)n[nH]1)c1ccc(OCc2ccc3ccccc3n2)cc1 . Is its CLint scaled strictly less than 40 mL/min/kg?
OUT: yes

IN: Consider the molecule CN(C(=O)c1ccncc1)c1ccc(OCc2ccc3ccccc3n2)cc1 . Is its CLint scaled strictly less than 40 mL/min/kg?
OUT: yes

IN: Consider the molecule CN(C(=O)c1ccncc1)c1ccc(OCc2ccc3ccccc3c2)cc1 . Is its CLint scaled strictly less than 40 mL/min/kg?
OUT: no

IN: Consider the molecule CN(C(=O)c1csc(-c2cccnc2)n1)c1ccc(OCc2ccc3ccccc3c2)cc1 . Is its CLint scaled strictly less than 40 mL/min/kg?
OUT: no

IN: Consider the molecule CN(C(=O)c1cc(-c2ccccc2)n[nH]1)c1ccc(OCB2C=Cc3ccccc3N2)cc1 . Is its CLint scaled strictly less than 40 mL/min/kg?
OUT: yes

IN: Consider the molecule CN(C(=O)c1ccc2ncsc2c1)c1ccc(OCB2C=Cc3ccccc3N2)cc1 . Is its CLint scaled strictly less than 40 mL/min/kg?
OUT: no

###

// inhibition lookup, one value per entry
Target: cAMP and cAMP-inhibited cGMP 3',5'-cyclic phosphodiesterase 10A (Homo sapiens)
Sequence (Q9Y233 whole entry): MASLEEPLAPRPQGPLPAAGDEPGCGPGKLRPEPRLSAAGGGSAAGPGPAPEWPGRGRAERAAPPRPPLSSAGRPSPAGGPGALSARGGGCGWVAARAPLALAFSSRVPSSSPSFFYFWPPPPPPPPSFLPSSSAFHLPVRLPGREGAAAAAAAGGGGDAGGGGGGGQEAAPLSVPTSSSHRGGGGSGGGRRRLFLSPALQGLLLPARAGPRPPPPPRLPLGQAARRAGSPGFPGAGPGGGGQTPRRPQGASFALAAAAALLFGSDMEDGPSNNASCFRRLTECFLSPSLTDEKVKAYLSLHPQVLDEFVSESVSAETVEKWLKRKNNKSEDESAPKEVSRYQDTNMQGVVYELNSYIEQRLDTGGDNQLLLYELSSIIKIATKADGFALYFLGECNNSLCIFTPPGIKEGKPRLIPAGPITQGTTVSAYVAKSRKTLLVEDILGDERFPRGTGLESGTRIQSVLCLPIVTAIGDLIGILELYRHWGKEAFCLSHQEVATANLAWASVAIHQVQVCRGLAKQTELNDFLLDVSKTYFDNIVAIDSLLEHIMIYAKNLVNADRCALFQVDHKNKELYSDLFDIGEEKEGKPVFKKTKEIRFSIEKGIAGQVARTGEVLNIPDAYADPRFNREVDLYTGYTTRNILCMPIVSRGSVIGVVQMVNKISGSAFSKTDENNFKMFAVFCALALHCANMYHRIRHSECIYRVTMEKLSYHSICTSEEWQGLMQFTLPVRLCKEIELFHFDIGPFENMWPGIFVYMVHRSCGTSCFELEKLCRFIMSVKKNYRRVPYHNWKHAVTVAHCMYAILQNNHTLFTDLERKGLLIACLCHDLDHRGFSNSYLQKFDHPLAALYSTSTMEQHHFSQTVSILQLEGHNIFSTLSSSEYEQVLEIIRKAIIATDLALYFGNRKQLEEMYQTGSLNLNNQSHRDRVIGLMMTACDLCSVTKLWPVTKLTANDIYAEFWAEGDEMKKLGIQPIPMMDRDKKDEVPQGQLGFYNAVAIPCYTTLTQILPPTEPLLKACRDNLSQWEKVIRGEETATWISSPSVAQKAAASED
Test: Inhibition of PDE10A (unknown origin) at 10 uM

// worked examples, inhibition included
In [3]: df
Out[3]:
                               smiles_input  data_value
0  CN(C(=O)c1csc(-c2cccnc2)n1)c1ccc(OCc2ccc3ccccc3c2)cc1          2%
1  CN(C(=O)c1ccc2ncsc2c1)c1ccc(OCB2C=Cc3ccccc3N2)cc1         45%
2  CN(C(=O)c1cc(-c2ccccc2)n[nH]1)c1ccc(OCc2ccc3ccccc3c2)cc1          3%
3  CN(C(=O)c1ccncc1)c1ccc(OCB2C=Cc3ccccc3N2)cc1         11%
4  CN(C(=O)c1cc(-c2ccccn2)[nH]n1)c1ccc(OCc2ccc3ccccc3c2)cc1          4%

IN: Specify reported inhibition for the compound shown: Cn1cc(-c2ccncc2)c(-c2ccc(OCB3C=Cc4ccccc4N3)cc2)n1
OUT: 48%

IN: Specify reported inhibition for the compound shown: Cn1cc(-c2ccncc2)c(-c2ccc(OCc3ccc4ccccc4c3)cc2)n1
OUT: 25%

IN: Specify reported inhibition for the compound shown: CN(C(=O)c1ccc2ncsc2c1)c1ccc(OCc2ccc3ccccc3c2)cc1
OUT: 5%

###

The following compounds each carry a recorded pIC50 for cAMP and cAMP-inhibited cGMP 3',5'-cyclic phosphodiesterase 10A (Homo sapiens).
// field semantics: pIC50 = negative decimal log of concentration (mol/L)

// worked examples, pIC50 included
                               smiles_input                                    system  data_value
0  CN(C(=O)c1csc(-c2cccnc2)n1)c1ccc(OCc2ccc3ccccc3n2)cc1  cAMP and cAMP-inhibited cGMP 3',5'-cyclic phosphodiesterase 10A (Homo sapiens)        6.77
1  CN(C(=O)c1cc(-c2ccccn2)[nH]n1)c1ccc(OCB2C=Cc3ccccc3N2)cc1  cAMP and cAMP-inhibited cGMP 3',5'-cyclic phosphodiesterase 10A (Homo sapiens)        7.19
2  CN(C(=O)c1cc(-c2ccccc2)n[nH]1)c1ccc(OCB2C=Cc3ccccc3N2)cc1  cAMP and cAMP-inhibited cGMP 3',5'-cyclic phosphodiesterase 10A (Homo sapiens)        5.74

Next:
IN: Specify reported pIC50 for the compound shown: CN(C(=O)c1csc(-c2cccnc2)n1)c1ccc(OCB2C=Cc3ccccc3N2)cc1
OUT: 6.48
